Target Or System: GCase (GBA) in human fibroblast cell line GM10915 harboring the L444P GBA mutation (Homo sapiens, UniProt P04062, L483P)
Construct: Human fibroblast cell line GM10915 harboring the L444P GBA mutation; host or cells: GM10915 human fibroblasts
Sequence (P04062 40-536 L483P): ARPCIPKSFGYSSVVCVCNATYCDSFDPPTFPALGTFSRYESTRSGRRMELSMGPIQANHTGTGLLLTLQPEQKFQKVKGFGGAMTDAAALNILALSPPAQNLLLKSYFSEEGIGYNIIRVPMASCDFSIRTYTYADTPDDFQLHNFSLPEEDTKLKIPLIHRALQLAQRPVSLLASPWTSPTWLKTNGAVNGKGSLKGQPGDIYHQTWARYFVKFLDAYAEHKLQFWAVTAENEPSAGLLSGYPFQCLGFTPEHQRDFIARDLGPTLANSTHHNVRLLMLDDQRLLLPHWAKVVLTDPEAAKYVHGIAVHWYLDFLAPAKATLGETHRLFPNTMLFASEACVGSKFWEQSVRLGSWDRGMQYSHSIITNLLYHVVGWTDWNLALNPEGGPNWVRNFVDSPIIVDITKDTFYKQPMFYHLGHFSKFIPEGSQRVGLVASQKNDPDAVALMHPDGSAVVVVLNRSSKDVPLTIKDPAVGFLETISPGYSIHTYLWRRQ
Assay Info: GCase activity assay (4-MUG substrate, normalised to crystal violet staining) in L444P GBA fibroblasts
Type: cell-based
Measurement Setup: maximum percent GCase activity relative to untreated cells in the dose range tested, 5 days exposure
Reported Emax values for a set of compounds
Endpoint Name: Emax (%)

> print(dat)
                                    compound  unit.abbreviation  numeric.value
 1  Nc1ccc(N2CCCC(C3=NOCC(CN4CCCCC4)O3)C2)nc1 (stereo not drawn)                  %            110
 2  c1ccc(N2CCCC(C3=NOCC(CN4CCCCC4)O3)C2)nc1 (stereo not drawn)                  %            140
 3  c1cncc(CNCCC2=NOCC(CN3CCCCC3)O2)c1 (racemic)                  %            149
 4  Cn1ncc(CC2(C3=NOCC(CN4CCCCC4)O3)CCNCC2)n1 (stereo not drawn)                  %            149
 5  c1nc(C2CCNCC2)sc1C1=NOCC(CN2CCCCC2)O1 (stereo not drawn)                  %            194
 6  c1cc2n(n1)CCC(C1=NOCC(CN3CCCCC3)O1)C2 (stereo not drawn)                  %            123
 7  C1CCN(CC2CON=C([C@]34CNC[C@H]3CCOC4)O2)CC1 (relative stereo)                  %            203
 8  C1CCN(CC2CON=C([C@@]34CNC[C@@H]3C4)O2)CC1 (relative stereo)                  %            268
 9  CN1C[C@@H](O)C[C@H](C2=NOCC(CN3CCCCC3)O2)C1 (relative stereo)                  %            274
10  N[C@@H]1CN[C@H](C2=NOCC(CN3CCCCC3)O2)C1 (stereo partly drawn)                  %            105
11    CN(C)CCCC1=NOCC(CN2CCCCC2)O1 (racemic)                  %            238
12  NC(=O)N1CCCC(C2=NOCC(CN3CCCCC3)O2)C1 (stereo not drawn)                  %            111
13  C1CCN(CC2CON=C(CC3CCNCC3)O2)CC1 (racemic)                  %            184
14  CC(C)C1ON=C(C2CCNCC2)OC1CN1CCCCC1 (racemic)                  %            180
15  COc1cc(OC)c(CNCCC2=NOCC(CN3CCCCC3)O2)cn1 (stereo not drawn)                  %            175
16  CC(=O)N1CCCC1C1=NOCC(CN2CCCCC2)O1 (stereo not drawn)                  %            107
17  COc1cc(C)c(CC2(C3=NOCC(CN4CCCCC4)O3)CCNCC2)cn1 (stereo not drawn)                  %            110
18  COC1(C2=NOCC(CN3CCCCC3)O2)CCNC1 (racemic)                  %            292
